Each entry below carries its recorded Stability of Plant-Derived Cannabinoid Compounds in AB Red.
measurement_protocol: Stability of cannabinoid compounds and Vitamin E components in Beverage 2 (AB Red) by LCMSMS
Assay type: physicochemical
conditions_used: stored at 8° C., 2 days
Value expressed in µg/mL; do not type the unit.

compound: CCCCCc1cc(O)c(C/C=C(\C)CCC=C(C)C)c(O)c1 [CBG, cannabigerol]
experimental_value: 4.79
--
compound: C=C(C)[C@@H]1CCC(C)=C[C@H]1c1c(O)cc(CCCCC)c(C(=O)O)c1O [CBDA, cannabidiolic acid]
experimental_value: 1.66
--
compound: CCCCCc1cc(O)c2c(c1)OC(C)(C)c1ccc(C)cc1-2 [CBN, cannabinol]
experimental_value: 2.74

Next, consider the following compound.
Determine from records and report Stability of Plant-Derived Cannabinoid Compounds in AB Red for C=C(C)[C@@H]1CCC(C)=C[C@H]1c1c(O)cc(CCC)cc1O [CBDV, cannabidivarin]
0.197
